// provenance: ChEMBL document CHEMBL2016478

For each record, write down the corresponding solubility.
# method: Solubility of the compound by chemiluminescent nitrogen detection assay
# Assay type: physicochemical
Kindly report the value followed by its unit.

Q: Which solubility value is on record for COc1cccc2c1c(NS(=O)(=O)c1ccc(Cl)s1)nn2Cc1cccc(CNC(=O)CO)c1 ?
Ans: 167 µg/mL

Q: Quick check: solubility of COc1ccc(Cn2nc(NS(=O)(=O)c3ccc(Cl)s3)c3c(OC)cccc32)cc1OC ?
Ans: 46 µg/mL

Q: Entry COc1cccc2c1c(NS(=O)(=O)c1ccc(Cl)s1)nn2Cc1cccc(CNC(=O)C(C)(C)O)c1 : reported solubility = ?
Ans: 162 µg/mL

Q: Item COc1cccc2c1c(NS(=O)(=O)c1ccc(Cl)s1)nn2Cc1ccc(CO)cc1 has what recorded solubility?
Ans: 123 µg/mL

Q: Reported solubility, compound COc1cccc(Cn2nc(NS(=O)(=O)c3ccc(Cl)s3)c3c(OC)cccc32)c1 : ____
Ans: 12 µg/mL

Q: Return reported solubility; argument: COc1cccc2c1c(NS(=O)(=O)c1ccc(Cl)s1)nn2Cc1ccccc1
Ans: 1 µg/mL

Q: Look at this compound and give its reported solubility. COc1cccc2c1c(NS(=O)(=O)c1ccc(Cl)s1)nn2Cc1cccc(CN(C)C(C)=O)c1
Ans: 151 µg/mL

Q: I am curious: what solubility value has been reported for COc1cccc2c1c(NS(=O)(=O)c1ccc(Cl)s1)nn2Cc1cccc(CNC(C)=O)c1 ?
Ans: 124 µg/mL

Q: Would you kindly share the measured solubility for COc1cccc2c1c(NS(=O)(=O)c1ccc(Cl)s1)nn2Cc1cccc(C(N)=O)c1 ?
Ans: 140 µg/mL

Q: Quick check: solubility of COc1cccc2c1c(NS(=O)(=O)c1ccc(Cl)s1)nn2Cc1cccc(CNC(=O)C(C)O)c1 (centres undefined) ?
Ans: 146 µg/mL

Q: # input compound: COc1ccccc1Cn1nc(NS(=O)(=O)c2ccc(Cl)s2)c2c(OC)cccc21 ; wanted: its solubility
Ans: 12 µg/mL

Q: What measured solubility goes with COc1cccc2c1c(NS(=O)(=O)c1ccc(Cl)s1)nn2Cc1cccc(CO)c1 ?
Ans: 127 µg/mL

Q: # solubility lookup, item COc1cccc2c1c(NS(=O)(=O)c1ccc(Cl)s1)nn2Cc1ccccc1CO
Ans: 74 µg/mL

Q: Can you share its solubility? I mean this compound: COc1ccc(Cn2nc(NS(=O)(=O)c3ccc(Cl)s3)c3c(OC)cccc32)cc1
Ans: 7 µg/mL
